- EXPERIMENTAL PROTOCOL: yeast display, Sf9 membrane polyspecificity reagent, FACS + sequencing; frameworks hold sequencing errors

{"columns": ["ITEM SEQUENCE", "polyreactivity (PSR sort gate)"],
 "data": [
  ["QVQLVESGGGLVQAGGSLRLSCAASGFTFRRYAMGWYRQAPGKERELVAAITRTGAGTYYADSVKGRFTISRDNAKNTVYLQMNSLKPEDTAVYYCAAAFYYASAMDYWGQGTQVTVSS", "high polyreactivity"],
  ["QVQLVESGGGLVQAGGSLRLSCAASGFTFGRYAMGWYRQAPGKERELVASISRSGGSTNYADSVKGRFTISRDNAKNTVYLQMNSLKPEDTAVYYCAAVKGRRYDYWGQGTQVTVSS", "high polyreactivity"]
]}

// provenance: the nanobody polyreactivity screen of Harvey et al. (2022)
